The measurements presented in this section are drawn from patent US20130243795A1.

# target_under_test: T1, Human CD27 ECD, monomeric soluble (construct limits not stated) (human, UniProt P26842 20-191)
# T1 construct: extracellular domain; target of the Biacore assays; also called monomeric soluble CD27; CD27-His
# protocol_notes: Biacore SPR, purified mAb
quantity_kind: koff (s⁻¹)

M713 (antibody, V domains shown, also called single-gene DNA ID 713) VH: QVQLVQSGAEVKKPGASVKVSCKASGYAFSSSWMNWVRQAPGQGLEWMGRIYSGDADTNYAQKFKGRVTMTRDTSTSTVYMELSSLRSEDTAVYYCARSDYYGDYGFAYWGQGTLVTVSS VL: DIQMTQSPSSLSASVGDRVTITCKASQSVDYAGESFMNWYQQKPGKAPKLLIYAASNLESGVPSRFSGSGSGTDFTLTISSLQPEDFATYYCQQSNEDPYTFGQGTKVEIK	1.16e-05
M711 (antibody, V domains shown, also called single-gene DNA ID 711) VH: EVQLVQSGAEVKKPGESLKISCKGSGYAFSSSWMNWVRQMPGKGLEWMGRIYSGDADTNYNQKFKGQVTISADKSISTAYLQWSSLKASDTAMYYCARSDYYGDYGFAYWGQGTLVTVSS VL: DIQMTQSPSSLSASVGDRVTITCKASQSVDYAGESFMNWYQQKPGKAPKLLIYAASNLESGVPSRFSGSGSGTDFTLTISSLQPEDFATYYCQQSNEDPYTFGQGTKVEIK	5.82e-05
M709 (antibody, V domains shown, also called single-gene DNA ID 709) VH: EVQLVQSGAEVKKPGESLKISCKGSGYAFSSSWMNWVRQMPGKGLEWMGRIYAGDADTAYSPSFQGQVTISADKSISTAYLQWSSLKASDTAMYYCARSDYYGDYGFAYWGQGTLVTVSS VL: DIVMTQSPDSLAVSLGERATINCKASQSVDYAGESFMNWYQQKPGQPPKLLIYAASNLESGVPDRFSGSGSGTDFTLTISSLQAEDVAVYYCQQSNEDPYTFGQGTKLEIK	5.89e-05
M710 (antibody, V domains shown, also called single-gene DNA ID 710) VH: EVQLVQSGAEVKKPGESLKISCKGSGYAFSSSWMNWVRQMPGKGLEWMGRIYAGDADTNYAPSFQGQVTISADKSISTAYLQWSSLKASDTAMYYCARSDYYGDYGFAYWGQGTLVTVSS VL: DIVMTQSPDSLAVSLGERATINCKASQSVDYAGESFMNWYQQKPGQPPKLLIYAASNLESGVPDRFSGSGSGTDFTLTISSLQAEDVAVYYCQQSNEDPYTFGQGTKLEIK	4.88e-05
